Biological target: human Smo (Homo sapiens (Human), UniProt Q99835)
Sequence (Q99835 181-787): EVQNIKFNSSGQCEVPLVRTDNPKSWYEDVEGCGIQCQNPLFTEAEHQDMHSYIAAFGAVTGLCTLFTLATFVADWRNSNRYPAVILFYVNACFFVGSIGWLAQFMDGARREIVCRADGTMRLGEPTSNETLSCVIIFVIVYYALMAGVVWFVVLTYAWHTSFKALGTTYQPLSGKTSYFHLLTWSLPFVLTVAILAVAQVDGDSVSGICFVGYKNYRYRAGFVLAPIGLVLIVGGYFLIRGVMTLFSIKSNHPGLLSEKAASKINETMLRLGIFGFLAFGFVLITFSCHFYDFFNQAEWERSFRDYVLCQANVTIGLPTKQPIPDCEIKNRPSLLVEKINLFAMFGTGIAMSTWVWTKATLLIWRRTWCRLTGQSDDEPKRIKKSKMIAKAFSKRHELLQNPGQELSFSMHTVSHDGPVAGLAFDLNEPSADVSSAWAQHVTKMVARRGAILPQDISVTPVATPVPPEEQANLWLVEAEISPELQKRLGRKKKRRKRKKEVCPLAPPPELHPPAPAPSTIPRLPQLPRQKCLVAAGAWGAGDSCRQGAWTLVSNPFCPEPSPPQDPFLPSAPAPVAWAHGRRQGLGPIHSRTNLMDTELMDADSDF
pIC50: −log10 of the molar value.
Everything with pIC50 lower than 7 is Not met; everything else, including exactly 7, is Met.

Could you verify whether the entry O=S(=O)(CCO)NC1CCN(c2ccc(Cl)c(-c3ccccn3)n2)CC1 shows pIC50 of no less than 7? Met

Could you verify whether the entry COCCOCC1CCN(c2cc(-c3ncccc3C)c(Cl)cn2)CC1 shows pIC50 of no less than 7? Not met

Could you verify whether the entry Cc1cccnc1-c1cc(N2CCC3(CC2)CNC(=O)O3)ncc1Cl shows pIC50 of no less than 7? Not met

Could you verify whether the entry COCCS(=O)(=O)NC1CCN(c2ccc(Cl)c(-c3ccccn3)n2)CC1 shows pIC50 of no less than 7? Met

Could you verify whether the entry Cc1cccnc1-c1cc(N2CCC(C(=O)Nc3cnn(C)n3)CC2)ncc1Cl shows pIC50 of no less than 7? Met

Could you verify whether the entry Cc1cccnc1-c1nc(N2CCC(CS(C)(=O)=O)CC2)ncc1Cl shows pIC50 of no less than 7? Met

Could you verify whether the entry Cc1ccc(-c2nc(N3CCC(NS(C)(=O)=O)CC3)ncc2Cl)nc1 shows pIC50 of no less than 7? Met

Could you verify whether the entry CCS(=O)(=O)NC1CCN(c2cc(-c3ncc(C)cc3C)c(Cl)cn2)CC1 shows pIC50 of no less than 7? Met

Could you verify whether the entry Cc1ccc(-c2nc(N3CCC(NS(C)(=O)=O)CC3)ccc2Br)nc1 shows pIC50 of no less than 7? Met

Could you verify whether the entry CS(=O)(=O)NC1CCN(c2cc(-c3ncc(Cl)cc3F)c(Cl)cn2)CC1 shows pIC50 of no less than 7? Not met

Could you verify whether the entry Cc1cccnc1-c1cc(N2CCC(C(=O)NCCC3C(=O)Nc4ccccc43)CC2)ncc1Cl (stereo not shown) shows pIC50 of no less than 7? Met

====

Entries with reported pIC50 on human Smo (Homo sapiens (Human), UniProt Q99835)
pIC50 here: minus log base 10 of the concentration, concentration in moles per litre.

Known results for compounds:
- Cc1cccnc1-c1cc(N2CCC(C(=O)NCC3CCCCO3)CC2)ncc1Cl (stereo not drawn): 6.86
- Cc1cccnc1-c1cc(N2CCC(C(=O)N[C@H]3CC[C@H](O)CC3)CC2)ncc1Cl (stereo in doubt): 7.14
- Cc1cccnc1-c1cc(N2CCC(C(=O)N3CCC(Nc4ccccn4)CC3)CC2)ncc1Cl: 6.97
- Cc1cccnc1-c1nc(N2CCC(O)CC2)ncc1Cl: 6.80
- Cc1cccnc1-c1cc(N2CCC(C(=O)NC[C@H]3CCCO3)CC2)ncc1Cl: 6.86

Entry Cc1cccnc1-c1cc(N2CCC(C(=O)N[C@H]3CCN(S(C)(=O)=O)C3)CC2)ncc1Cl , pIC50 reported as 7.17

Entry Cc1cnc(-c2cc(N3CCN(CCS(C)(=O)=O)CC3)ncc2Cl)c(C)c1 , pIC50 reported as 6.91

Entry Cc1cnc(-c2cc(N3CCN(C(=O)CN(C)C)CC3)ncc2Cl)c(C)c1 , pIC50 reported as 7.08

Entry COC(=O)NC1CCN(c2cc(-c3ncccc3C)c(Cl)cn2)CC1 , pIC50 reported as 7.11

Entry Cc1cccnc1-c1cc(N2CCC(C(=O)N3CCc4c(c(C(C)C)nn4C)C3)CC2)ncc1Cl , pIC50 reported as 6.84

Entry Cc1cccnc1-c1cc(N2CCC(OCC(=O)NC(C)(C)C)CC2)ncc1Cl , pIC50 reported as 6.90

Entry Cc1cccnc1-c1cc(N2CCC(C(=O)NCc3ncc[nH]3)CC2)ncc1Cl , pIC50 reported as 7.19

Entry Cc1cccnc1-c1cc(N2CCC(C(=O)NCCc3nc4cccnc4n3C)CC2)ncc1Cl , pIC50 reported as 6.81

Entry Cc1cccnc1-c1cc(N2CCC(C(=O)N[C@@H]3CC[C@@H](O)C3)CC2)ncc1Cl , pIC50 reported as 6.79

Entry CS(=O)(=O)NC1CCN(c2cc(-c3ccc(C(F)(F)F)cn3)c(Cl)cn2)CC1 , pIC50 reported as 6.96

====

Target: UniProt Q99835
Experiment: Smo radioligand competition binding assay
Settings: 0.05 μM test compound; read-out: Smo % inh. @ 0.05 μM
observation-type: inhibition at 0.05 µM (%)
Report as a plain number; the unit % is understood.

Known results for molecules:
- Cc1cnc(-c2nc(N3CCC(NC(=O)CO)CC3)ccc2Cl)c(C)c1: 92
- Cc1cnc(-c2cc(N3CCC(O)CC3)ncc2Cl)c(C)c1: 88

Entry Cc1cc(F)cnc1-c1cc(N2CCC(NS(=O)(=O)CCO)CC2)ncc1Cl , inhibition at 0.05 µM reported as 90.6

====

Test system: Gli-Luc/MEF cells
Assay: Gli-Luc/MEF assay
Assay type: cell-based, mouse
Details: Mus musculus, MEF; Shh-stimulated luciferase, 48 hours
observation-type: pIC50
pIC50 here: minus log base 10 of the concentration, concentration in moles per litre.

Known results for molecules:
* Cc1cccnc1-c1cc(N2CCC(C(=O)N3CCCC[C@H]3CO)CC2)ncc1Cl [Example A-85] | 6.94
* CS(=O)(=O)NC1CCN(c2cc(-c3ccc(F)cn3)c(Cl)cn2)CC1 [Example A-18] | 7.09
* Cc1cccnc1-c1nc(N2CCN(S(C)(=O)=O)CC2)ncc1Cl [Example A-33] | 6.95
* Cc1cccnc1-c1cc(N2CCC3(CC2)CNC(=O)O3)ncc1Cl [Example A-21] | 6.94

Please find the next molecule below.
Entry Cc1cccnc1-c1cc(N2CCC3(CC2)CN(C)C(=O)O3)ncc1Cl [Example A-20] , pIC50 reported as 6.96

====

Entries with reported pIC50 on human Smo (Homo sapiens (Human))
pIC50 here: minus log base 10 of the concentration, concentration in moles per litre.

Known results for compounds:
• Cc1cccnc1-c1cc(N2CC(C(=O)N(C)[C@@H]3CS(=O)(=O)C[C@H]3O)C2)ncc1Cl [Example A-69] = 6.72
• Cc1cnc(-c2cc(N3CCN(S(=O)(=O)CCO)CC3)ncc2Cl)c(C)c1 [Example A-111] = 7.63
• CCOC(=O)N1CCN(c2cc(-c3ncccc3C)c(Cl)cn2)CC1 [Example A-39] = 6.96
• Cc1cnc(-c2ccnc(N3CCN(C(=O)CCS(C)(=O)=O)CC3)c2)c(C)c1 [Example A-141] = 7.94
• Cc1cccnc1-c1cc(N2CCC(C(=O)N[C@@H]3CCN(S(C)(=O)=O)C3)CC2)ncc1Cl [Example A-57] = 7.04
• COCCC(=O)N1CCN(c2cc(-c3ncccc3C)c(Cl)cn2)CC1 [Example A-29] = 7.28
• Cc1ccc(-c2cccc(N3CCC(NS(C)(=O)=O)CC3)n2)nc1 [Example A-115] = 7.66
• CC(C)(O)CC(=O)NC1CCN(c2ccc(Cl)c(-c3ccccn3)n2)CC1 [Example A-131] = 7.52
• Cc1cnc(-c2ccnc(N3CCC(NS(C)(=O)=O)CC3)c2)c(C)c1 [Example A-143] = 7.91
• COCCC(=O)NC1CCN(c2cc(-c3ncccc3C)c(Cl)cn2)CC1 [Example A-27] = 6.97

Entry Cc1cccnc1-c1cc(N2CCC(C(=O)N[C@@H]3CS(=O)(=O)C[C@H]3O)CC2)ncc1Cl [Example A-68] , pIC50 reported as 6.92

Entry Cc1cccnc1-c1cc(N2CCN(C(=O)CCS(C)(=O)=O)CC2)ncc1Cl [Example A-93] , pIC50 reported as 8.01

Entry Cc1ccc(-c2nc(N3CCC(NS(C)(=O)=O)CC3)ccc2Cl)nc1 [Example A-117] , pIC50 reported as 7.77

Entry CCCNC(=O)COC1CCN(c2cc(-c3ncccc3C)c(Cl)cn2)CC1 [Example A-40] , pIC50 reported as 6.60

====

Entries with reported IC50 on human Smo (Homo sapiens (Human), UniProt Q99835)
Report as a plain number; the unit nM is understood.

- Cc1cccnc1-c1cc(N2CCC(C(=O)NCCc3c[nH]cn3)CC2)ncc1Cl [Example A-87]: 134
- CS(=O)(=O)CC1CCN(c2ncc(Cl)c(-c3ccccn3)n2)CC1 [Example A-92]: 132
- Cc1cccnc1-c1cc(N2CCC(C(=O)NCC3(O)CCC3)CC2)ncc1Cl [Example A-64]: 157
- CS(=O)(=O)NC1CCN(c2ncc(Cl)c(-c3ccccn3)n2)CC1 [Example A-45]: 83.7
- Cc1cccnc1-c1cc(N2CCC(C(=O)Nc3cccc(CO)n3)CC2)ncc1Cl [Example A-75]: 93.3

Fill in: human Smo (Homo sapiens (Human), UniProt Q99835) IC50 for CS(=O)(=O)NC1CCN(c2ncc(Cl)c(-c3ccccn3)c2F)CC1 [Example A-138] = 84.6

Fill in: human Smo (Homo sapiens (Human), UniProt Q99835) IC50 for Cc1cccnc1-c1cc(N2CCC(C(=O)N3CCCC(O)C3CO)CC2)ncc1Cl (centres unmarked) [Example A-86] = 112

Fill in: human Smo (Homo sapiens (Human), UniProt Q99835) IC50 for CC(=O)N1CCN(c2cc(-c3ncc(C)cc3C)c(Cl)cn2)CC1 [Example A-100] = 113

Numbers sourced from patent US9056865B2.
